This section lists IC50 readings for Histone deacetylase 3 (Homo sapiens, UniProt O15379).
Record the value in nM, omitting the unit from your answer.

COc1ncc(-c2cc(OCCCc3ccc(C(=O)Nc4ccccc4N)cc3)c3ncnc(C)c3c2)cc1NS(=O)(=O)c1ccc(F)cc1F : 6.6

Please look at the following compound next.
Quick check: IC50 of "COc1ncc(-c2cc(OCCCCCCC(=O)Nc3ccccc3N)c3ncnc(C)c3c2)cc1NS(=O)(=O)c1ccc(F)cc1F" ?
899

###

test system: MV4-11; experiment: Antiproliferative activity against human MV4-11 cells assessed as reduction in cell viability incubated for 72 hrs in presence of chidamide by CCK-8 assay; assay type: functional, cell-based; conditions: MV4-11, 72 h
MEASUREMENT NAME: IC50 (nM)
Record the value in nM, omitting the unit from your answer.

Quick check: IC50 of "Cc1nc(NC(=O)N2CCC[C@H]2C(N)=O)sc1-c1ccnc(C(C)(C)C(F)(F)F)c1" ?
190
